Assay: yeast display, Sf9 membrane polyspecificity reagent, FACS + sequencing; frameworks hold sequencing errors
measure: polyreactivity (PSR sort gate)

As a guide, the following entries are already answered.
item-sequence: QVQLVESGGGLVQAGGSLRLSSAASGSTFTVNGMGWYSQAPGKERELVAAIDGGDGSTYYADSVKGRFTISRDNAKNTVYLQMTSLKPEDTAVYYCAADPPGFTQYGYWGQGTQVTVSS
polyreactivity (PSR sort gate): low polyreactivity
//
item-sequence: QVQLVESGGGLVQARGSLRLSCAASGFIFLYNAMGWYRQAPGKERELLAAITSSGGTTYYADSVKGRFTISRDNAKNTVYLQMNSLKPEDTAVYYCAARYTGRNGGSNTPEYDYWVQGTQVTVSS
polyreactivity (PSR sort gate): low polyreactivity
//
item-sequence: QVQLVESGGGLVQAGGSLRLSCADSGRIFNGYGMGWYRQAPGKERELVATISSSGDSTYYADSVKGRFTISRDNAKNTVYLQMNSLKPEDTAVYYCAKRARYKFGYWGQGTQVTVSS
polyreactivity (PSR sort gate): high polyreactivity
//
item-sequence: QVQLVESGGALVQAGGSLRLSCAASGRIFGVNAMGWYRQAPGKERELVAAITSRGGSTYYADSVKGRFTISRDNAKNTVYLQMHSLTPEDTEVYYCRGWRYFTDKTYDYWGQGTQVTVSS
polyreactivity (PSR sort gate): high polyreactivity
//
item-sequence: QVQLVESGGGLVQAGGSLRLSCAASGSILPYYAMGWYRQAQGKERELLATITDGTDTYYADSVKGRFTISRDNAKNTVYLPMNSLKPEDTAVYYCNADGYVYYLHEDYWGQGTQVTVSS
polyreactivity (PSR sort gate): low polyreactivity

Q: Supply polyreactivity (PSR sort gate) value. Item: QVQLVESGGGLVQAGGSLRLSCAASGITLTRYAMGWYRQAPGKDRELVAAISTGGGSTYYADSVKGRFTISRDNAKNTVYLQMNSLKPEDTAVYYCAARIRFARGYPITRTYDYWGQGTQVTVSS
Ans: high polyreactivity

Recorded values, source the nanobody polyreactivity screen of Harvey et al. (2022).
